- Target: T1, zCON9_D
- T1 chain: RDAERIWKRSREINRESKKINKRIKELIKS
- Experiment Description: two-hybrid library CCmax;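 further: natural log of median RNA to DNA barcode read ratio; higher means stronger binding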
Some binders, each annotated with its measured interaction score.
Just the number, please, no unit after it.

Input: For the binder DENAALEAEIAALEAEIAALEAKNAALKG [P11-AA] , what interaction score is on record?
Output: -1.93

Input: Given the entry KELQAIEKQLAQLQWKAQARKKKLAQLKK [4H_APH] , report its measured interaction score.
Output: -1.96

Input: Need interaction score, item PKKEAEELAEESEELHDRSEKLHERAEQ [zCON9_A]
Output: -2.12

Input: Can you look up the measured interaction score of DKNAALKAENAALEAKIAALKAKIAALKG [P10-AA] for me?
Output: -1.97

Input: Sample DEIAALEAKNAALKAEIAALEAKNAALKG [P7-AA] — what was its interaction score?
Output: -1.95
